Molecular target: Recombinant human renin (Homo sapiens, UniProt P00797)
Sequence (P00797 67-406): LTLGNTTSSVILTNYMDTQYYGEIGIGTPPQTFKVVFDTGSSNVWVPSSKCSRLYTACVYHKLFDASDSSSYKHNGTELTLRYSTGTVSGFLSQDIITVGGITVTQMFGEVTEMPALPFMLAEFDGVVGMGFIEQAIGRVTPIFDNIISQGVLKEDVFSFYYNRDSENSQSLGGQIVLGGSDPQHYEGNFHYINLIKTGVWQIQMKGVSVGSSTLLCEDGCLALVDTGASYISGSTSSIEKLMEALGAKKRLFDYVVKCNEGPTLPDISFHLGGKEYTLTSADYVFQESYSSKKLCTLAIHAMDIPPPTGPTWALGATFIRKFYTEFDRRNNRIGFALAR
Assay: In vitro renin inhibitory activity assay
Details: recombinant human renin 4.2 ng/mL, substrate 4 μM, 37° C., one hour, pH 7.4
Assay readout: log10(IC50) (log10 of the value in nM)

{"columns": ["Compound", "Tgt", "log10(IC50)"],
 "data": [
  ["CCC(=O)NCCN1C(=O)C(C)(C)Oc2cc(C)c(C(=O)N(C(C)C)[C@@H]3CCCN(C(=O)OCOC(=O)OC4CCOCC4)C3)cc21", "Recombinant human renin (Homo sapiens, UniProt P00797)", 0.71],
  ["CCC(=O)NCCN1C(=O)C(C)(C)Oc2cc(C)c(C(=O)N(C(C)C)C3CCCN(C(=O)OC(C)OC(=O)CC)C3)cc21 (stereo not drawn)", "Recombinant human renin (Homo sapiens, UniProt P00797)", 0.56],
  ["CCC(=O)NCCN1C(=O)C2(CC2)Oc2cc(C)c(C(=O)N(C(C)C)C3CCCN(C(=O)OC(C)OC(=O)C(C)C)C3)cc21 (stereo not drawn)", "Recombinant human renin (Homo sapiens, UniProt P00797)", 1.18],
  ["CCOC(=O)OC(C)OC(=O)N1CCCC(N(C(=O)c2cc3c(cc2C)OC2(CCC2)C(=O)N3CCNC(=O)CC)C(C)C)C1 (stereo not drawn)", "Recombinant human renin (Homo sapiens, UniProt P00797)", 2.15],
  ["CCC(=O)NCCN1C(=O)C(C)(C)Oc2cc(C)c(C(=O)N(C(C)C)[C@@H]3CCCN(C(=O)OCOC(=O)OC)C3)cc21", "Recombinant human renin (Homo sapiens, UniProt P00797)", 2.15],
  ["CCOC(=O)O[C@@H](C)OC(=O)N1CCC[C@@H](N(C(=O)c2cc3c(cc2C)OC(C)(C)C(=O)N3CCNC(=O)CC)C(C)C)C1", "Recombinant human renin (Homo sapiens, UniProt P00797)", 2.86]
]}

====

system: abdominal skin of CD male rats; assay: Testing for irritation by single subcutaneous administration to rats; assay type: in vivo; design: key: — No inflammation; Amount of Inflammation: * < ** < *** < ****; Amount of Inflammation: * < ** < *** < ****; Amount of Inflammation: * < ** < *** < ****; Amount of Inflammation: * < ** < *** < ****; conditions: single subcutaneous administration 0.1 ml, 2% in DMSO and saline, three days after administration
Assay readout: Observation at Administration Site, Three days after administration

{"columns": ["Compound", "Value"],
 "data": [
  ["CCC(=O)NCCN1C(=O)C2(CCC2)Oc2cc(C)c(C(=O)N(C(C)C)[C@@H]3CCCN(C(=O)OCc4oc(=O)oc4C)C3)cc21", "—"],
  ["CCC(=O)NCCN1C(=O)C(C)(C)Oc2cc(C)c(C(=O)N(C(C)C)[C@@H]3CCCN(C(=O)O[C@H](C)OC(=O)C(C)C)C3)cc21", "—"],
  ["COCCCCN1C(=O)C(C)(C)Oc2cc(C(F)(F)F)c(C(=O)N(C(C)C)[C@@H]3CCCNC3)cc21.Cl [Comparative Example 1, reference compound]", "****"],
  ["CCC(=O)NCCN1C(=O)C(C)(C)Oc2cc(C(F)(F)F)c(C(=O)N(C(C)C)[C@@H]3CCCNC3)cc21.Cl [Comparative Example 2, reference compound]", "****"]
]}
